Test system: J774.A1
MEASUREMENT PROTOCOL: Cytotoxicity against mouse J774.A1 cells assessed as reduction in viability at 10 uM incubated for 20 hrs by MTT assay
Type: toxicity, cell-based
CONDITION DETAILS: j774.a1, 20 h
TEST READOUT: Activity (%)
Hi! Could you send only the number? It should be in %, unit omitted.

Problem: Give the reported value of Activity for this record: Fc1ccc2[nH]cc(C(c3ccc(Cl)cc3)c3c[nH]c4ccc(F)cc34)c2c1
Result: 40.15

###

Test system: J774.A1
MEASUREMENT PROTOCOL: Cytotoxicity against mouse J774.A1 cells assessed as reduction in viability at 20 uM incubated for 20 hrs by MTT assay
Assay type: toxicity, cell-based
CONDITION DETAILS: j774.a1, 20 h
As shown below, each of these compounds has a reported Activity value.
Write the value in % as a bare number.

Problem: Respond only with Activity recorded for Fc1ccc(C(c2c[nH]c3ccccc23)c2c[nH]c3ccccc23)cc1
Result: 20.05

Problem: State, in one line, measured Activity of Fc1ccc2[nH]cc(C(c3ccc(Cl)cc3)c3c[nH]c4ccc(F)cc34)c2c1
Result: 33.53

Problem: // Input: OC[C@H]1O[C@@H](n2cc(C(c3ccc(F)cc3)c3cn([C@@H]4O[C@H](CO)[C@@H](O)[C@@H](O)[C@H]4O)c4ccc(Br)cc34)c3cc(Br)ccc32)[C@H](O)[C@H](O)[C@@H]1O (some centres undefined) . Output its Activity only.
Result: 81.05

Problem: Name the recorded Activity of the compound listed here: Fc1ccc(C(c2c[nH]c3ccc(Br)cc23)c2c[nH]c3ccc(Br)cc23)cc1
Result: 34.28

###

Test system: J774.A1
MEASUREMENT PROTOCOL: Cytotoxicity against mouse J774.A1 cells assessed as reduction in viability at 30 uM incubated for 20 hrs by MTT assay
Assay type: toxicity, cell-based
CONDITION DETAILS: j774.a1, 20 h
TEST READOUT: Activity (%)
Give the number; % is assumed, so skip it.

Solved cases (3 shown):
>>> numeric_readout("Fc1ccc(C(c2c[nH]c3ccc(Br)cc23)c2c[nH]c3ccc(Br)cc23)cc1")
30.34
>>> numeric_readout("Fc1ccc(C(c2c[nH]c3ccccc23)c2c[nH]c3ccccc23)cc1")
19.81
>>> numeric_readout("OC[C@H]1O[C@@H](n2cc(C(c3ccc(F)cc3)c3cn([C@@H]4O[C@H](CO)[C@@H](O)[C@@H](O)[C@H]4O)c4ccc(Br)cc34)c3cc(Br)ccc32)[C@H](O)[C@H](O)[C@@H]1O (some centres undefined)")
70.11

Next item in the queue.
Problem: Given the molecule Fc1ccc2[nH]cc(C(c3ccc(Cl)cc3)c3c[nH]c4ccc(F)cc34)c2c1 , write its reported Activity.
Result: 32.04

###

System: J774.A1
MEASUREMENT PROTOCOL: Cytotoxicity against mouse J774.A1 cells assessed as reduction in viability at 50 uM incubated for 20 hrs by MTT assay
Format: toxicity, cell-based
CONDITION DETAILS: j774.a1, 20 h
TEST READOUT: Activity (%)
Return type: number; implicit unit %.

>>> numeric_readout("Fc1ccc(C(c2c[nH]c3ccc(Br)cc23)c2c[nH]c3ccc(Br)cc23)cc1")
21.73

Problem: Report Activity, nothing else, for this compound: Fc1ccc(C(c2c[nH]c3ccccc23)c2c[nH]c3ccccc23)cc1
Result: 15.89

Problem: Please indicate Activity recorded for Fc1ccc2[nH]cc(C(c3ccc(Cl)cc3)c3c[nH]c4ccc(F)cc34)c2c1
Result: 26.14

Problem: Determine its reported Activity: OC[C@H]1O[C@@H](n2cc(C(c3ccc(F)cc3)c3cn([C@@H]4O[C@H](CO)[C@@H](O)[C@@H](O)[C@H]4O)c4ccc(Br)cc34)c3cc(Br)ccc32)[C@H](O)[C@H](O)[C@@H]1O (some centres undefined)
Result: 69.77
